Target: Ectonucleotide pyrophosphatase/phosphodiesterase family member 1 (Homo sapiens)
Sequence (P22413 whole entry): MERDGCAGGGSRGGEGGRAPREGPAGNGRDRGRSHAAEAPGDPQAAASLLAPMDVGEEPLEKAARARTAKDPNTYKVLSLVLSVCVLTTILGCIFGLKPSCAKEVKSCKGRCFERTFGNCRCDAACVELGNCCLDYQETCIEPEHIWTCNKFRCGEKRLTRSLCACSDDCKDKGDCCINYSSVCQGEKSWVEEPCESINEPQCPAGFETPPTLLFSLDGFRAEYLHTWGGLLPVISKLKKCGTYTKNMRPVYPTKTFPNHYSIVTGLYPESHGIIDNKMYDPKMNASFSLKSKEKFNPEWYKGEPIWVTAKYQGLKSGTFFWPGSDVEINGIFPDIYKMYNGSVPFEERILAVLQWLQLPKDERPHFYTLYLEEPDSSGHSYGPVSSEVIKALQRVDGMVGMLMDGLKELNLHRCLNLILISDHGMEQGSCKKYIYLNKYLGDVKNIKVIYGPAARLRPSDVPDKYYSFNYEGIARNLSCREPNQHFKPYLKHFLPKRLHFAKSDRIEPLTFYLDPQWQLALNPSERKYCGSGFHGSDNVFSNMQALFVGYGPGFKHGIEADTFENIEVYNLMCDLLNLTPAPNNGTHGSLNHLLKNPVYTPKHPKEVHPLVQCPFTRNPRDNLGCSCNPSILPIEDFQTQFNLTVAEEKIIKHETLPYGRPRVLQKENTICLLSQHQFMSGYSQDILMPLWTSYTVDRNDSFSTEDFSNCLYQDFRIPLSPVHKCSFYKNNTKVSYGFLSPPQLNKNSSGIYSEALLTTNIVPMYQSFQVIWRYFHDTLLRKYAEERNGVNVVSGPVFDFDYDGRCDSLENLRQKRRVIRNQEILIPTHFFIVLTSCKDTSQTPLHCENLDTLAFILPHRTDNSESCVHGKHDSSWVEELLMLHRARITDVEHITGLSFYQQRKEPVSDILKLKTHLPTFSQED
recorded_metric: pKi
A value of pKi is the negative decimal logarithm of a concentration given in moles per litre.

**Q:** Reported pKi, molecule `COc1cc2nc(/C=C/c3ccccc3)nc(N3CCC(CCNS(N)(=O)=O)CC3)c2cc1OC` : ____
**A:** 5.74

**Q:** Reported pKi, molecule COc1cc2nc(CC3OC(=O)c4ccccc43)nc(N3CCC(CCNS(N)(=O)=O)CC3)c2cc1OC (centres undefined) : ____
**A:** 7.05

**Q:** Reported pKi, molecule `COc1ccccc1/C=C/c1nc(N2CCC(CCNS(N)(=O)=O)CC2)c2cc(OC)c(OC)cc2n1` : ____
**A:** 6.52

---
**Q:** Reported pKi, molecule `COc1ccc2ncnc(N3CCC(CCNS(N)(=O)=O)CC3)c2c1` : ____
**A:** 6.62

**Q:** Reported pKi, molecule `COc1cc2nc(/C=C/c3ccncc3)nc(N3CCC(CCNS(N)(=O)=O)CC3)c2cc1OC` : ____
**A:** 6.66

**Q:** Reported pKi, molecule `COc1cccc(/C=C/c2nc(N3CCC(CCNS(N)(=O)=O)CC3)c3cc(OC)c(OC)cc3n2)c1` : ____
**A:** 7.00

**Q:** Reported pKi, molecule `COc1cc2nc(/C=C/c3ccccn3)nc(N3CCC(CCNS(N)(=O)=O)CC3)c2cc1OC` : ____
**A:** 7.15

**Q:** Reported pKi, molecule `COC(=O)c1ccc(/C=C/c2nc(N3CCC(CCNS(N)(=O)=O)CC3)c3cc(OC)c(OC)cc3n2)cc1` : ____
**A:** 5.87

**Q:** Reported pKi, molecule `COC(=O)c1cccc(/C=C/c2nc(N3CCC(CCNS(N)(=O)=O)CC3)c3cc(OC)c(OC)cc3n2)c1` : ____
**A:** 6.53

###

Items are presented alongside their recorded inhibition.
Molecular target: Ectonucleotide pyrophosphatase/phosphodiesterase family member 1 (Homo sapiens)
Test: Inhibition of human GFP-fused NPP1 expressed in COS7 cells at 1 uM using pnp-TMP as substrate after 60 mins relative to control
Format: cell-based
Kindly provide the numeric value in % only, without the unit symbol.

**Q:** Query inhibition on Ectonucleotide pyrophosphatase/phosphodiesterase family member 1 (Homo sapiens) for `COc1ccccc1/C=C/c1nc(N2CCC(CCNS(N)(=O)=O)CC2)c2cc(OC)c(OC)cc2n1`
**A:** 74

**Q:** Query inhibition on Ectonucleotide pyrophosphatase/phosphodiesterase family member 1 (Homo sapiens) for `COc1cc2nc(/C=C/c3cccc(F)c3)nc(N3CCC(CCNS(N)(=O)=O)CC3)c2cc1OC`
**A:** 14

**Q:** Query inhibition on Ectonucleotide pyrophosphatase/phosphodiesterase family member 1 (Homo sapiens) for `COc1cc2nc(/C=C/c3ccccc3F)nc(N3CCC(CCNS(N)(=O)=O)CC3)c2cc1OC`
**A:** 78

**Q:** Query inhibition on Ectonucleotide pyrophosphatase/phosphodiesterase family member 1 (Homo sapiens) for `COc1cc2nc(CCc3ccc(F)cc3)nc(N3CCC(CCNS(N)(=O)=O)CC3)c2cc1OC`
**A:** 69

Okay, now this compound:
**Q:** Query inhibition on Ectonucleotide pyrophosphatase/phosphodiesterase family member 1 (Homo sapiens) for `COc1cc2nc(/C=C/c3cccnc3)nc(N3CCC(CCNS(N)(=O)=O)CC3)c2cc1OC`
**A:** 86

###

Biological target: Ectonucleotide pyrophosphatase/phosphodiesterase family member 1 (Homo sapiens, UniProt P22413)
Entries are grouped by Ki into these classes: Low (below 0.4 µM), Mid (0.4 µM to below 1 µM), High (1 µM or more)

**Q:** Hi there! Could you help me figure out the category for `COc1cc2nc(/C=C/c3cccnc3)nc(N3CCC(CCNS(N)(=O)=O)CC3)c2cc1OC` please?
**A:** Low

**Q:** Hi there! Could you help me figure out the category for `COc1cc2nc(/C=C/c3ccccc3F)nc(N3CCC(CCNS(N)(=O)=O)CC3)c2cc1OC` please?
**A:** Low

**Q:** Hi there! Could you help me figure out the category for `COc1cc2nc(/C=C/c3cccc(F)c3)nc(N3CCC(CCNS(N)(=O)=O)CC3)c2cc1OC` please?
**A:** High

**Q:** Hi there! Could you help me figure out the category for `CCOc1cc2c(Cl)ncnc2cc1OC` please?
**A:** High

**Q:** Hi there! Could you help me figure out the category for `COc1cc2ncnc(N3CCC(CCN)CC3)c2cc1OC` please?
**A:** Mid

**Q:** Hi there! Could you help me figure out the category for `COc1cc2nc(/C=C/c3ccc(F)cc3)nc(N3CCC(CCNS(N)(=O)=O)CC3)c2cc1OC` please?
**A:** Mid

**Q:** Hi there! Could you help me figure out the category for `COc1ccc(/C=C/c2nc(N3CCC(CCNS(N)(=O)=O)CC3)c3cc(OC)c(OC)cc3n2)cc1` please?
**A:** Low

**Q:** Hi there! Could you help me figure out the category for `COc1cc2nc(CCc3ccc(F)cc3)nc(N3CCC(CCNS(N)(=O)=O)CC3)c2cc1OC` please?
**A:** Low

---
**Q:** Hi there! Could you help me figure out the category for `CCCOc1cc2c(Cl)ncnc2cc1OC` please?
**A:** High

**Q:** Hi there! Could you help me figure out the category for `COc1cc2ncnc(Cl)c2cc1OC/C=C/S(F)(F)(F)(F)F` please?
**A:** High

###

Items are presented alongside their recorded inhibition.
Biological target: Ectonucleotide pyrophosphatase/phosphodiesterase family member 1 (Homo sapiens) (UniProt P22413)
Experiment: Inhibition of human GFP-fused NPP1 expressed in COS7 cells at 1 uM using pnp-TMP as substrate after 60 mins relative to control
Type: cell-based
Kindly provide the numeric value in % only, without the unit symbol.

Sample records with inhibition:
**Q:** Reported inhibition, molecule `CCCOc1cc2c(Cl)ncnc2cc1OC` : ____
**A:** 29

**Q:** Reported inhibition, molecule `COc1cc2ncnc(N3CCC(CCNS(N)(=O)=O)CC3)c2cc1OC` : ____
**A:** 87

**Q:** Reported inhibition, molecule `COc1cc2ncnc(N3CCC(CCNC(C)=O)CC3)c2cc1OC` : ____
**A:** 9

**Q:** Reported inhibition, molecule COc1cc2nc(CC3OC(=O)c4ccccc43)nc(N3CCC(CCNS(N)(=O)=O)CC3)c2cc1OC (stereo unspecified) : ____
**A:** 79

**Q:** Reported inhibition, molecule `COc1cc2nc(/C=C/c3ccncc3)nc(N3CCC(CCNS(N)(=O)=O)CC3)c2cc1OC` : ____
**A:** 79

Okay, now this molecule:
**Q:** Reported inhibition, molecule `COc1cc2nc(/C=C/c3ccccn3)nc(N3CCC(CCNS(N)(=O)=O)CC3)c2cc1OC` : ____
**A:** 85

###

Biological target: Ectonucleotide pyrophosphatase/phosphodiesterase family member 1 (Homo sapiens) (UniProt P22413)
Test: Inhibition of human GFP-fused NPP1 expressed in COS7 cells at 1 uM using pnp-TMP as substrate after 60 mins relative to control
Assay type: cell-based
Hi, to clarify the labels: t covers inhibition from 40% upward, f covers anything below 40%.

Answered cases to consult:
**Q:** Determine whether this molecule has inhibition no lower than 40%: `CCCCOc1cc2c(Cl)ncnc2cc1OC`
**A:** f

**Q:** Determine whether this molecule has inhibition no lower than 40%: `COc1cc2ncnc(N3CCC(CC#N)CC3)c2cc1OC`
**A:** f

**Q:** Determine whether this molecule has inhibition no lower than 40%: `COc1cccc(/C=C/c2nc(N3CCC(CCNS(N)(=O)=O)CC3)c3cc(OC)c(OC)cc3n2)c1`
**A:** t

---
**Q:** Determine whether this molecule has inhibition no lower than 40%: `COc1cc2ncnc(N3CCC(CCN)CC3)c2cc1OC`
**A:** t

**Q:** Determine whether this molecule has inhibition no lower than 40%: `COc1cc2ncnc(Cl)c2cc1OC/C=C/S(F)(F)(F)(F)F`
**A:** f

**Q:** Determine whether this molecule has inhibition no lower than 40%: `CCOC(=O)C1CCN(c2ncnc3cc(OC)c(OC)cc23)CC1`
**A:** f
